- Test system: MDA-MB-231 breast
- experiment notes: NCI-60 one-dose screen, 48 h
- assay conditions: 10 µM unless noted
The panel holds about 83,000 compounds, 20% with a hit somewhere; the sample as a whole holds those more often. Calls of active or inactive are those of the source. The calls were made as follows: active = growth percent below 10; inactive = the rest.
Outcomes: true for active, false for inactive

compound	answer label
O=C(Nc1ncc(Cc2cccc(C(F)(F)F)c2)s1)c1ccc(-n2cnnn2)cc1	false
COc1ccc(-c2c[nH]c(C(=O)O)c2-c2cc(OC)c(OC)c(OC)c2)cc1	false
CC[C@]1(O)CC2CN(CCc3c([nH]c4ccccc34)C(C(=O)OC)(c3cc4c(cc3OC)N(C=O)[C@H]3[C@@](O)(C(=O)OC)[C@H](OC(C)=O)[C@]5(CC)[C@@H]6C[C@@H]6CN6CC[C@]43[C@@H]65)C2)C1 (some centres undefined)	true
O=C(N=Nc1c(O)[nH]c2ccccc12)Nc1ccc(Br)cc1	false
CCCCCCCCCCCCCCCCCCOc1cccc(CC(=O)OCC[N+](CC)(CC)CC)c1	false
c1ccc(-c2cc(-c3cc(-c4ccccc4)on3)no2)cc1	false
CCOc1ccccc1NC(=O)c1cc2ccccc2cc1O	false
COc1cc2ncnc(Nc3ccc(F)c(Cl)c3)c2cc1OCC(=O)N1CCCCC1	false
CCN1C(=S)N(CC)C2C1NC(=S)N2/N=C/C=C/c1ccccc1 (centres undefined)	false
Nc1nc(N)c2c(n1)NC(c1cccc(Nc3ccnc4cc(C(F)(F)F)ccc34)c1)CC(c1ccc(F)cc1)=N2 (centres undefined)	false
CCOC(=O)c1ccc(Nc2ncnc3c2cnn3-c2cccc(F)c2)cc1	false
CC/C(=C(/c1ccc(Cl)cc1)c1ccc(OCCN2CCOCC2)cc1)c1ccccc1	false
COc1cc(-c2nc3occn3c2-c2ccnc(NCCCNS(=O)(=O)c3ccc(O)cc3)n2)ccc1F	false
CCOC(=O)c1cnn(-c2ccc(S(N)(=O)=O)cc2)c1N	false
CCCCC#Cc1c(/C=C(\CCCC)SCC)n(C)c(=O)[nH]c1=O	false
O=C1N=c2ccccc2=C1c1sc(=S)n(C2CC(=O)N(c3ccc(Cl)cc3)C2=O)c1O (centres undefined)	false
COc1ccc(-c2csc(NC(=O)CN3CCN(CCO)CC3)n2)cc1NS(=O)(=O)c1cccc2c(N(C)C)cccc12	false
Nc1nc2ccccc2c2c(=O)c3ccc(Cl)cc3sc12	false
COc1ccc(-c2ccc(-c3ccc(C(=N)N)cn3)o2)cc1Cl	true

====

# reported growth; entries follow
- Tested on: NCI-H23 lung
- experiment notes: NCI-60 one-dose screen, 48 h (100 = growth as untreated, 0 = no growth, -100 = all killed)
- assay conditions: 10 µM unless noted
This is part of a sample that, as a whole, favours compounds with a hit. Of some 83,000 tested, about 20% had one in any assay. Activity calls are given as the source filed them. Rule for the calls: active = growth percent below 10; inactive = the rest.
observed property: growth

                                   compound             value
0  COc1cc(F)c(/C=C/c2cc(/C=C/c3cc(OC)c(OC)cc3F)n(-c3cc(F)cc(F)c3)n2)cc1OC   -20.2% (active)
1        O=C(/C=C\c1ccc(Cl)c(Cl)c1)c1ccccc1  89.1% (inactive)
2  Cc1n(Cc2ccc3ccccc3c2)c(Cl)c(Cl)[n+]1Cc1ccc2ccccc2c1  25.6% (inactive)
3  COc1cc(Nc2nc3ccccc3cc2C(=O)Nc2ccc(F)c(F)c2)cc(OC)c1OC    9.57% (active)
4                 O=C(NNc1ccccc1)c1ncc[nH]1  96.2% (inactive)
5  COc1cc(Cl)cc(-c2nn(C(=O)NS(=O)(=O)c3ccc(Cl)cc3)cc2-c2ccncc2)c1  89.1% (inactive)
6  CCN1C(=O)/C(=c2\sc3n(c2=O)C2C(NN=3)N(CC)C(=O)N2CC)c2ccccc21 (stereo not given)  34.5% (inactive)
7  C/C(=C(\c1ccc(OCCN2CCOCC2)cc1)c1ccc(OC(=O)C2CCCCC2)cc1)c1ccc(Cl)cc1  88.9% (inactive)
8  COc1ccc(CCNC(=O)COc2cc3c(Nc4ccc(F)c(Cl)c4)ncnc3cc2OC)cc1OC  92.5% (inactive)
9  CCCn1nc(C(=O)N2CCCCC2)c2c1CCC(N1CCC(c3ccncc3)CC1)C2 (stereo not given)   105% (inactive)

====

- System: SNB-75 CNS
- experiment notes: NCI-60 one-dose screen, 48 h
- assay conditions: 10 µM unless noted
About 83,000 compounds went through this panel and 20% of them were active in at least one assay; those are over-represented in the sample as a whole. Active and inactive are the calls of the source. How the source made its calls: active means growth percent below 10; inactive means the rest.
Outcomes: YES (active), NO (inactive)

molecule	assay target	answer label
C/C=C(\C)C(=O)N[C@H]1CC[C@]2(C)C3CC[C@@]4(C)C(CC[C@@H]4C(C)N(C)C)C3CCC2[C@H]1OC(C)=O (some centres undefined)	SNB-75 CNS	YES
COc1ccc(C2Nc3nc(SC)nc(N)c3N=C3c4ccccc4CCC32)cc1 (centres undefined)	SNB-75 CNS	NO
O=C(Nc1ccccc1C(=O)N/N=C(\c1ccccc1)c1ccccn1)c1ccccc1	SNB-75 CNS	NO
Cc1ccc(C(=O)Nc2ccc(CN3CCN(C)CC3)c(C(F)(F)F)c2)cc1C#Cc1cnc(N)cc1C#N	SNB-75 CNS	YES
[2H]C([2H])([2H])Oc1cccc(/C=C/C(=O)/C=C(/C=C/c2cccc(OC([2H])([2H])[2H])c2OC([2H])([2H])[2H])OB(F)F)c1OC([2H])([2H])[2H]	SNB-75 CNS	NO
NC(=O)c1c(NC(=O)/C=C/c2cccs2)sc2c1CCC(=O)C2	SNB-75 CNS	NO
O=C(Nc1ccc2ncsc2c1)c1csc(Nc2ccc3[nH]ncc3c2)n1	SNB-75 CNS	NO
COc1cc(F)c(/C=C/c2cc(/C=C/c3cc(OC)c(OC)cc3F)n(-c3cc(F)cc(F)c3)n2)cc1OC	SNB-75 CNS	NO
O=C1/C(=C/c2ccc(F)c(F)c2)CN(C(=O)C(Cl)Cl)C/C1=C\c1ccc(F)c(F)c1	SNB-75 CNS	YES
Nc1nc(CSc2n[nH]c(N)n2)nc(Nc2ccccc2)n1	SNB-75 CNS	NO
O=C(/C=C/c1cccs1)Nc1ncc(Cc2ccc(Cl)c(Cl)c2)s1	SNB-75 CNS	NO
CN(Cc1ccccc1)c1nc(Cl)c(C2CC(c3ccc4c(c3)OCO4)=NN2c2cc(Cl)cc(Cl)c2)s1 (centres undefined)	SNB-75 CNS	NO
N=c1ccccn1CCO	SNB-75 CNS	NO
O=[N+]([O-])c1ccc2[nH]c3nccc(NCc4cccc(Cl)c4)c3c2c1	SNB-75 CNS	YES
C[C@@H]1O[C@@H](O[C@H]2[C@@H](OC(=O)[C@]34CCC(C)(C)C[C@H]3C3=CC[C@@H]5[C@@]6(C)C[C@H](O)[C@H](O[C@@H]7O[C@H](CO)[C@@H](O)[C@H](O)[C@H]7O)[C@@](C)(CO)[C@@H]6CC[C@@]5(C)[C@]3(C)C[C@H]4O)OC[C@@H](O)[C@@H]2O)[C@H](O)[C@H](O[C@@H]2OC[C@@H](O)[C@H](O[C@@H]3OC[C@](O)(CO)[C@H]3O[C@@H]3OC[C@@H](O)[C@H](O)[C@H]3O)[C@H]2O)[C@H]1O[C@@H]1OC[C@](O)(CO)[C@H]1O	SNB-75 CNS	NO
C#Cc1cc(C(=O)Nc2ccc(CN3CCN(C)CC3)c(C(F)(F)F)c2)ccc1C	SNB-75 CNS	NO
NC1=CC(=O)c2cccnc2C1=O	SNB-75 CNS	YES
CCCn1nc(C(=O)N2CCCCC2)c2c1CCC(N1CCC(c3ccncc3)CC1)C2 (centres undefined)	SNB-75 CNS	NO
CCCCCC#CC1OC23CCCCC2C(C#N)(C(=N)O3)C1(C#N)C#N (centres undefined)	SNB-75 CNS	NO

====

# reported growth; entries follow
- Test system: EKVX NSCLC
- experiment notes: NCI-60 one-dose screen, 48 h (100 = growth as untreated, 0 = no growth, -100 = all killed)
- assay conditions: 10 µM unless noted
About 83,000 compounds went through this panel and 20% of them were active in at least one assay; those are over-represented in the sample as a whole. Activity calls are given as the source filed them. The calls were made as follows: active = growth percent below 10; inactive = the rest.
observed property: growth

>>> print(df.to_string())
                                   molecule  observed_property                      value
0  COc1ccc(Cn2cc(C(=O)Nc3cccnc3Nc3ccccc3)nn2)cc1             growth           92.8% (inactive)
1         COc1ccccc1/C=C1\COc2ccc(O)cc2C1=O             growth            102% (inactive)
2  COc1ccc(NC(=O)Nc2ccccc2CNc2nc(Nc3ccc(OCCN4CCCC4)cc3)ncc2Cl)cc1             growth           55.4% (inactive)
3  COc1nc2ccc(C)cc2cc1/C=[N+](\[O-])c1ccccc1             growth           77.8% (inactive)
4  Cc1ccc(NC(=O)c2sc3nc(C)c(C(=O)c4ccccc4)cc3c2N)cc1             growth           72.4% (inactive)
5  CC1(Cc2ccccc2)CC2=C(C(=O)O1)C(c1ccccc1)NC(=O)N2 (stereo not given)             growth           98.7% (inactive)
6  CCOC(=O)c1nc2c3ccccc3cnn2c1C(=O)c1ccc(OC)cc1             growth           89.7% (inactive)
7  CCCNNC(=O)/C=C/c1ccc(CNCCc2c(C)[nH]c3ccccc23)cc1             growth  50.4% [2.5 µM] (inactive)
8  CN1CCN(Cc2ccc(NC(=O)c3nc4ccc5[nH]ncc5c4c4c3CCCC4)cc2C(F)(F)F)CC1             growth           37.2% (inactive)
9  COc1ccc(-c2nnc3n(C)c(=O)c4ccccc4n23)cc1O             growth           97.5% (inactive)
